Reported MIC values for the following molecules.
- System: Staphylococcus aureus
- ASSAY NOTES: Antibacterial activity against efflux-mediated macrolide-resistant Staphylococcus aureus PK1 by broth microdilution method
- Format: functional
Supply the numeric figure in µg/mL, leaving out any unit text.

MOL	MIC (µg/mL)
CC[C@H]1OC(=O)[C@H](C)[C@@H](O[C@H]2C[C@@](C)(OC)[C@@H](OC(=O)CCOCCOc3ccc4c(c3)c(=O)c(C(=O)OC(C)C)cn4C3CC3)[C@H](C)O2)[C@H](C)[C@@H](O[C@@H]2O[C@H](C)C[C@H](N(C)C)[C@H]2O)[C@](C)(O)C[C@@H](C)CN(C)[C@H](C)[C@@H](O)[C@]1(C)O	16

Input: What measured MIC goes with CCCn1cc(C(=O)O)c(=O)c2cc(NCCOCCOCCC(=O)O[C@H]3[C@H](C)O[C@@H](O[C@H]4[C@H](C)[C@@H](O[C@@H]5O[C@H](C)C[C@H](N(C)C)[C@H]5O)[C@](C)(O)C[C@@H](C)CN(C)[C@H](C)[C@@H](O)[C@](C)(O)[C@@H](CC)OC(=O)[C@@H]4C)C[C@@]3(C)OC)c(Cl)cc21 ?
Output: 0.25

Input: Next record, please: CCCOC(=O)c1cn(C2CC2)c2ccc(NCCOCCC(=O)O[C@H]3[C@H](C)O[C@@H](O[C@H]4[C@H](C)[C@@H](O[C@@H]5O[C@H](C)C[C@H](N(C)C)[C@H]5O)[C@](C)(O)C[C@@H](C)CN(C)[C@H](C)[C@@H](O)[C@](C)(O)[C@@H](CC)OC(=O)[C@@H]4C)C[C@@]3(C)OC)cc2c1=O
Output: 2
